Hi there, I'd appreciate the recorded PBM binding z-score for every entry that follows.
tested on: PPARg homodimer (NR concentration 180 nM); assay: PBM binding z-score (relative to random genomic background probes); higher = stronger binding; sequences stand for … in GC…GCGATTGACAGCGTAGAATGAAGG
# respond with the number and nothing more

GET /values?readout=PBM binding z-score&item= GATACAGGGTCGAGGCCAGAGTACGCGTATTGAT
0.109

GET /values?readout=PBM binding z-score&item= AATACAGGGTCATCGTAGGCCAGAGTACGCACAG
1.96

GET /values?readout=PBM binding z-score&item= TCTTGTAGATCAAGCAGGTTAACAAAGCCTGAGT
0.0405

GET /values?readout=PBM binding z-score&item= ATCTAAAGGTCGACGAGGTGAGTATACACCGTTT
1.81

GET /values?readout=PBM binding z-score&item= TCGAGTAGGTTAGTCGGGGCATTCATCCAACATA
0.384

GET /values?readout=PBM binding z-score&item= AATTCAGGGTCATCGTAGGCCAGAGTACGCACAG
2.85

GET /values?readout=PBM binding z-score&item= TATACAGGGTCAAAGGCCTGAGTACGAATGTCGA
4.01

GET /values?readout=PBM binding z-score&item= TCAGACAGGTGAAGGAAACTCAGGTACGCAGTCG
0.667

GET /values?readout=PBM binding z-score&item= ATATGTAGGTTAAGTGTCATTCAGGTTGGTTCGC
1.85

GET /values?readout=PBM binding z-score&item= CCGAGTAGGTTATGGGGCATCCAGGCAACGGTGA
0.993

GET /values?readout=PBM binding z-score&item= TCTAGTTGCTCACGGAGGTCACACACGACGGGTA
2.53

GET /values?readout=PBM binding z-score&item= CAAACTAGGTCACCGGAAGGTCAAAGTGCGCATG
7.29

GET /values?readout=PBM binding z-score&item= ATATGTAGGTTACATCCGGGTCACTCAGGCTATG
2.34

GET /values?readout=PBM binding z-score&item= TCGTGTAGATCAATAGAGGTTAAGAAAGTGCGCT
0.586

GET /values?readout=PBM binding z-score&item= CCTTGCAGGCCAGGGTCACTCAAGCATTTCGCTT
0.75

GET /values?readout=PBM binding z-score&item= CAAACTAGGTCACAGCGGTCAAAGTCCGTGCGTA
2.78

GET /values?readout=PBM binding z-score&item= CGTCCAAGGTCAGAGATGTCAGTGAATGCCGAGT
0.984

GET /values?readout=PBM binding z-score&item= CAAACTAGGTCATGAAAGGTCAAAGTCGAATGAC
9.18

GET /values?readout=PBM binding z-score&item= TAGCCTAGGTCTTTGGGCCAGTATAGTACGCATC
-0.656

GET /values?readout=PBM binding z-score&item= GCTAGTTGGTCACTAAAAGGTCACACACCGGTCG
4.15

GET /values?readout=PBM binding z-score&item= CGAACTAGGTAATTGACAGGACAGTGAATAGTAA
0.615

GET /values?readout=PBM binding z-score&item= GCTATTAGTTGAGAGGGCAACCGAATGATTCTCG
0.87

GET /values?readout=PBM binding z-score&item= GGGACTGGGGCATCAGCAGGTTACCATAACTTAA
1.51

GET /values?readout=PBM binding z-score&item= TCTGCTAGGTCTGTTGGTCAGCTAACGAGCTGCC
-1.76

GET /values?readout=PBM binding z-score&item= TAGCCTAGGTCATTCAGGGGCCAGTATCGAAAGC
1.28

GET /values?readout=PBM binding z-score&item= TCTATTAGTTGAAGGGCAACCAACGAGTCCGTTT
0.593

The values you see were collected from the supplement of paper PMC6555819.
